# log10 of Kb per record follows
study.system: UniProtKB P41145
Sequence (P41145 whole entry): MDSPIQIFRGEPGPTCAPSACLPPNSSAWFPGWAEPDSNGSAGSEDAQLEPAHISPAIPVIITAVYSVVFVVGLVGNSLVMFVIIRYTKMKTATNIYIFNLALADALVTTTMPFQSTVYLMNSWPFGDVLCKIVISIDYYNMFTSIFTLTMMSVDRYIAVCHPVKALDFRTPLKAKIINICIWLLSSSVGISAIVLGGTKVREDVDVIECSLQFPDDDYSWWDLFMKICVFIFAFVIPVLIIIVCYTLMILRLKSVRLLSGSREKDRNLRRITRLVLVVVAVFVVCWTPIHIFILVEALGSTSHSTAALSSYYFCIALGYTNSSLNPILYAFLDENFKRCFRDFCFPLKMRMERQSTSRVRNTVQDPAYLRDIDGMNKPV
assay.remarks: Antagonist activity at kappa opioid receptor (unknown origin) expressed in membranes assessed as inhibition of U69593-induced GTP-gamma-[35S] binding after 4 hrs by micro beta scintillation counting analysis
The base-10 logarithm of Kb, taken with Kb in nM, is what appears here.

Q. Sample "Cc1ccccc1CNCCc1ccc(Oc2ccc(C(N)=O)cn2)c(Cl)c1" — what was its log10 of Kb?
A. 0.53

Q. So what's the measured log10 of Kb for this one? "NC(=O)c1ccc(Oc2ccc(CNCCc3cccc(F)c3)cc2)nc1"
A. -0.05

Q. Entry "NC(=O)c1ccc(Oc2ccc(CCNCc3cccc(Cl)c3)cc2Cl)nc1" has what log10 of Kb?
A. 0.84

Q. Entry "NC(=O)c1ccc(Oc2ccc(CCNCc3cccc(F)c3)cc2Cl)nc1" : reported log10 of Kb = ?
A. 0.65

Q. Dear colleague, I am looking for the recorded log10 of Kb of the following compound: "CC(C)CCNCc1ccc(Oc2ccc(C(N)=O)cn2)cc1"
A. -0.40

Q. What measured log10 of Kb goes with "NC(=O)c1ccc(Oc2ccc(CCNCc3ccccc3)cc2Cl)nc1" ?
A. 0.90

Q. Given the compound "NC(=O)c1ccc(Oc2ccc(CNCCc3cccs3)cc2)nc1" , what is its reported log10 of Kb?
A. -0.45
